Provenance of the data: PubChem BioAssay (Tox21)

- System: Acetylcholinesterase (Homo sapiens) (UniProt P22303)
- Sequence (P22303 whole entry, looked up): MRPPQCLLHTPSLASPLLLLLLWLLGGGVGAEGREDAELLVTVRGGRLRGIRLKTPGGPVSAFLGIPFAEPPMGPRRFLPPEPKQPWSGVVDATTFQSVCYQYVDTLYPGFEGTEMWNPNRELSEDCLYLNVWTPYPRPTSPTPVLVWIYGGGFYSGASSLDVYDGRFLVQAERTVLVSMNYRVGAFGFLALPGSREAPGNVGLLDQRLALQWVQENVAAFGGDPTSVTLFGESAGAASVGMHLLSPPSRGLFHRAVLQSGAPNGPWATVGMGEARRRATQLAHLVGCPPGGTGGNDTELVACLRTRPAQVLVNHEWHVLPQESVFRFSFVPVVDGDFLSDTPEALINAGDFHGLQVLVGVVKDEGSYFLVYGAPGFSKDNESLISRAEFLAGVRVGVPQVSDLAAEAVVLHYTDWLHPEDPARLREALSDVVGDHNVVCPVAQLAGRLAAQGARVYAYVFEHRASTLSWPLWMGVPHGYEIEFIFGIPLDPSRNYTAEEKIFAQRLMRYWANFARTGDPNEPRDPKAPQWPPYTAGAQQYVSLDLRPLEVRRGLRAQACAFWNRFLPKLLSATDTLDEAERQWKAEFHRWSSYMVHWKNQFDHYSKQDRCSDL
- Experimental details: Acetylcholinesterase (AChE) small molecule antagonists: colormetric cell-based qHTS assay (AID 1347395); also: nearly all actives have a fitted effect of over 30% in size
- Assay setup: SH-SY5Y cells AChE activity, colorimetric (Ellman); series mostly up to 115 µM
Results filed as inconclusive are left out. Calls of active or inactive are those of the source. Calls follow the shape of the full dose curve.
Outcome field: choose from y = active, n = inactive

Reference set (3 entries):
[[record]]
molecule = "CCOc1cccc(N)c1"
label_value = "n"

[[record]]
molecule = "C=CCN1CCc2nc(N)sc2CC1"
label_value = "n"

[[record]]
molecule = "C/C=C/C=C/C=O"
label_value = "n"


Enquiry: What did this assay record as the result for CCc1cccc(CC)c1NC(=O)C(=O)O ?
Return: n
